Test system: tobacco budworm (Heliothis virescens [Fabricius])
assay.overview: surface-treated diet test, insecticidal activity against tobacco budworm
Assay type: in vivo
assay.context: 0.25 millimoles of candidate insecticide on the surface of the diet; second instar larvae; five-day exposure; compared to total number of insects infested
Known Percent Mortality of a selection of compounds

compound	Percent Mortality
CC(C)=CCCC(C)CC(=O)[O-].OC1(C(c2ccc(OC(F)(F)F)cc2)c2ccc(OC(F)(F)F)cc2)CC[N+](O)(Cc2ccc(Oc3ccccn3)cc2)CC1 (centres unmarked) [Compound 509]	100%
FC(F)(F)c1ccc(C(c2ccc(C(F)(F)F)cc2)C2(F)CCN(Cc3ccc(Oc4ccccn4)cc3)CC2)cc1 [Compound 193]	100%
CC(C)OC(=O)Nc1ccc(C[N+]2([O-])CCC(O)(C(O)(c3ccc(OC(F)(F)F)cc3)c3ccc(OC(F)(F)F)cc3)CC2)cc1 (centres unmarked) [Compound 423]	100%
O=Cc1ccc(CN2CCC(O)(C(O)(c3ccc(OC(F)(F)F)cc3)c3ccc(OC(F)(F)F)cc3)CC2)cc1 [Compound 418]	0%
O=C(Nc1ccc(CN2CCC(O)(C(c3ccc(C(F)(F)F)cc3)c3ccc(C(F)(F)F)cc3)CC2)cc1)OCC1CC1 [Compound 319]	100%

----------
Some compounds, each annotated with its measured Percent Mortality.
System: tobacco budworm (Heliothis virescens [Fabricius])
assay.overview: surface-treated diet test, insecticidal activity against tobacco budworm
Type: in vivo
assay.context: 0.25 millimoles of candidate insecticide on the surface of the diet; second instar larvae; five-day exposure; compared to total number of insects infested
readout.type: Percent Mortality (%)

> print(dat)
                                   compound       readout.type  endpoint.value
1  [O-][N+]1(Cc2ccc(-c3ncccn3)cc2)CCC(O)(C(c2ccc(OC(F)(F)F)cc2)c2ccc(OC(F)(F)F)cc2)CC1 (stereo not drawn)  Percent Mortality             100
2  O=C([O-])CO.OC1(C(c2ccc(OC(F)(F)F)cc2)c2ccc(OC(F)(F)F)cc2)CC[N+](O)(Cc2ccc(Oc3ccccn3)cc2)CC1 (stereo not drawn)  Percent Mortality             100
3  Cc1cc(Cl)ccc1C(c1ccc(OC(F)(F)F)cc1)C1(O)CCN(Cc2ccc(Oc3ccccn3)cc2)CC1 (stereo not drawn)  Percent Mortality             100
4  CCCOc1ccc(CN2CCC(O)(C(O)(c3ccc(OC(F)(F)F)cc3)c3ccc(OC(F)(F)F)cc3)CC2)cc1  Percent Mortality             100
5  CC(C)OC(=O)Nc1ccc(C[N+]2(Cc3ccc(NC(=O)OC(C)C)cc3)CCC(O)(C(O)(c3ccc(OC(F)(F)F)cc3)c3ccc(OC(F)(F)F)cc3)CC2)cc1.[Cl-]  Percent Mortality              50
6  CCON=Cc1ccc(CN2CCC(O)(C(c3ccc(OC(F)(F)F)cc3)c3ccc(Cl)cc3Cl)CC2)cc1 (stereo not drawn)  Percent Mortality             100

Reference source for all entries: patent US8119563B2
